# reported AC50; entries follow
- testTarget: UniProt P30518
- Sequence (P30518 whole entry): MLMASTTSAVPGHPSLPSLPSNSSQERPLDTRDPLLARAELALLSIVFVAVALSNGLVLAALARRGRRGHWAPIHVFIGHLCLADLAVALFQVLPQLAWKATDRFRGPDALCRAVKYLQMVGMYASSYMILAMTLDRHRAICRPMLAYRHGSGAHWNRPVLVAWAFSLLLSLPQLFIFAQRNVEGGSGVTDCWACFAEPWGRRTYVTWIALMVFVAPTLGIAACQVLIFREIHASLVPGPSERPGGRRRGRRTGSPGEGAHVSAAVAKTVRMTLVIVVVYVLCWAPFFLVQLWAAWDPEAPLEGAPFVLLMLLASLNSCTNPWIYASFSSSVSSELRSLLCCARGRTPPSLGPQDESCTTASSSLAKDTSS
endpoint: AC50

> print(dat)
                                   molecule  observed
1  CCCNC(=O)NS(=O)(=O)c1ccc(Cl)cc1 [CHLORPROPAMIDE]   > 30 µM
2  CCC(=O)O[C@]1(C(=O)CCl)[C@@H](C)C[C@H]2[C@@H]3CCC4=CC(=O)C=C[C@]4(C)[C@@]3(F)[C@@H](O)C[C@@]21C [CLOBETASOL PROPIONATE]   > 30 µM
3        CCCN(CCC)S(=O)(=O)c1ccc(C(=O)O)cc1   > 10 µM
4  CC=CC1=C(C(=O)O)N2C(=O)[C@@H](NC(=O)[C@H](N)c3ccc(O)cc3)[C@H]2SC1   > 30 µM
